biological target: Fibroblast growth factor 2 (Homo sapiens) (UniProt P09038); experiment: FGF2 binders on small-molecule microarrays, primary screen, biochemical, small-molecule microarray, 635/667 nm fluorescence (AID 1133); conditions: small-molecule microarray binding, FGF2, fluorescence 635/667; higher = more signal
Sequence (P09038 whole entry, looked up): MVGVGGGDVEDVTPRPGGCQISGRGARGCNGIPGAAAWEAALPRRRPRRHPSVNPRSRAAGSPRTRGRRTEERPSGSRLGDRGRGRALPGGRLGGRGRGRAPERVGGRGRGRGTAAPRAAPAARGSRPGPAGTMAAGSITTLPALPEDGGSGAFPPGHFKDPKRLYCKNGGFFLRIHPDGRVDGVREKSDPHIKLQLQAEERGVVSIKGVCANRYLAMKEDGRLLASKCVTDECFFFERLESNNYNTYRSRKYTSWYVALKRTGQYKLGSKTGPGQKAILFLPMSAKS
ASSAY METRIC: composite z-score
Could you keep your reply to the number by itself?

# input molecule: `C=C(COC)/C(=C/C[C@@H](OC(C)=O)c1ccc(CO)o1)c1cnc2ccccc2c1` ; wanted: its composite z-score
1.57

Recorded composite z-score for `CCCC=C(CCC)[C@@H](NS(=O)(=O)c1cccs1)c1ccc(C(=O)OC)cc1` , please?
-0.186

* * *

assay: adipocyte viability effects, profiling panel, cell-based, 3T3-L1 adipocytes, calcein-AM fluorescence, 48 h, basal (AID 1163); details: 3T3-L1 adipocytes viability, higher = more signal
Recorded z-score for the following compounds
I'd appreciate a reply containing only the number, no unit.

Illustrative cases are given below, each with its answer.
C=CCN(Cc1ccccc1)C(=O)C(c1cccs1)N(CCOCCO)C(=O)/C=C\C(=O)O (stereo not given): 0.345
C#CCNC(=O)[C@H](Cc1ccccc1)NC(=O)CCC(=O)O: -0.405
COc1cc2c(cc1O)C=[N+](Cc1cccc(OC(F)(F)F)c1)CC2: 0.0197

Value lookup for z-score; key = `COc1cc2c(cc1OC)CN(C(=O)[C@H]1[C@@H]3C(=O)O[C@@H](c4ccccc4)[C@@H](c4ccccc4)N3[C@@H](c3ccc(O)cc3)[C@]13C(=O)Nc1ccc(C#CC4=CCCCC4)cc13)CC2`
0.474

Data request, read-out z-score, for `CN(C)C(=O)[C@@]1(Cc2ccccc2)N=C(c2ccc(OCCCO)cc2)O[C@H]1c1ccccc1N=[N+]=[N-]`
1.22

* * *

tested on: XIP peptide (Xip251-270); assay: small-molecule binders of XIP peptide, primary screen, biochemical, small-molecule microarray, fluorescence 635/667 nm, 0.5 µg/mL protein (AID 1183); conditions: small-molecule microarray binding, fluorescence 635 nm; higher = more signal
We use 0.7 as the dividing line for composite z-score: on or above the line is yes (1), below is no (0).

For orientation, consider the following solved cases.
CN(C)C(=O)[C@]1(Cc2ccccc2N=[N+]=[N-])N=C(c2ccc(OCCCO)cc2)O[C@@H]1c1ccccc1: no (0)
C=CCOC(=O)[C@H]1[C@@H]2C(=O)O[C@@H](c3ccccc3)[C@@H](c3ccccc3)N2[C@@H](c2ccc(OCCOC(=O)[C@@H]3C[C@@H]4C(=O)N[C@@H](CCCCN(C)C)C(=O)N4[C@@H]3c3ccc(O)cc3)cc2)[C@]12C(=O)Nc1ccc(I)cc12: yes (1)
C=C[C@H](COC(C)=O)N(C(=O)OC(C)(C)C)S(=O)(=O)c1ccc(Br)cc1: no (0)
C=CCNC(=O)[C@@H]1[C@H]2C(=O)O[C@H](c3ccccc3)[C@H](c3ccccc3)N2[C@H](c2ccc(OCCO)cc2)[C@@]12C(=O)Nc1ccc(C#CCCO)cc12: yes (1)
O=C1O[C@H](c2ccccc2)[C@H](c2ccccc2)N2[C@H]1[C@@H](C(=O)O)[C@]1(C(=O)Nc3ccc(C#CC4=CCCCC4)cc31)[C@H]2c1ccccc1OCCO: yes (1)

# ---- query compound ----
Could you please find out whether `Cc1ccc(S[C@]2(C(=O)NC3CC3)CC(=O)N(C3Cc4ccccc4C3)[C@@H]2c2ccc(CO)cc2)cc1` has composite z-score that meets 0.7 or exceeds it?
yes (1)
